# assay target: EGFR(D770_N771insSVD) expressing Ba/F3 stable cell line (Homo sapiens, UniProt P00533, DUP768-770, cells depend on it)
# Sequence (P00533 with tags, fused parts or gaps DUP768-770): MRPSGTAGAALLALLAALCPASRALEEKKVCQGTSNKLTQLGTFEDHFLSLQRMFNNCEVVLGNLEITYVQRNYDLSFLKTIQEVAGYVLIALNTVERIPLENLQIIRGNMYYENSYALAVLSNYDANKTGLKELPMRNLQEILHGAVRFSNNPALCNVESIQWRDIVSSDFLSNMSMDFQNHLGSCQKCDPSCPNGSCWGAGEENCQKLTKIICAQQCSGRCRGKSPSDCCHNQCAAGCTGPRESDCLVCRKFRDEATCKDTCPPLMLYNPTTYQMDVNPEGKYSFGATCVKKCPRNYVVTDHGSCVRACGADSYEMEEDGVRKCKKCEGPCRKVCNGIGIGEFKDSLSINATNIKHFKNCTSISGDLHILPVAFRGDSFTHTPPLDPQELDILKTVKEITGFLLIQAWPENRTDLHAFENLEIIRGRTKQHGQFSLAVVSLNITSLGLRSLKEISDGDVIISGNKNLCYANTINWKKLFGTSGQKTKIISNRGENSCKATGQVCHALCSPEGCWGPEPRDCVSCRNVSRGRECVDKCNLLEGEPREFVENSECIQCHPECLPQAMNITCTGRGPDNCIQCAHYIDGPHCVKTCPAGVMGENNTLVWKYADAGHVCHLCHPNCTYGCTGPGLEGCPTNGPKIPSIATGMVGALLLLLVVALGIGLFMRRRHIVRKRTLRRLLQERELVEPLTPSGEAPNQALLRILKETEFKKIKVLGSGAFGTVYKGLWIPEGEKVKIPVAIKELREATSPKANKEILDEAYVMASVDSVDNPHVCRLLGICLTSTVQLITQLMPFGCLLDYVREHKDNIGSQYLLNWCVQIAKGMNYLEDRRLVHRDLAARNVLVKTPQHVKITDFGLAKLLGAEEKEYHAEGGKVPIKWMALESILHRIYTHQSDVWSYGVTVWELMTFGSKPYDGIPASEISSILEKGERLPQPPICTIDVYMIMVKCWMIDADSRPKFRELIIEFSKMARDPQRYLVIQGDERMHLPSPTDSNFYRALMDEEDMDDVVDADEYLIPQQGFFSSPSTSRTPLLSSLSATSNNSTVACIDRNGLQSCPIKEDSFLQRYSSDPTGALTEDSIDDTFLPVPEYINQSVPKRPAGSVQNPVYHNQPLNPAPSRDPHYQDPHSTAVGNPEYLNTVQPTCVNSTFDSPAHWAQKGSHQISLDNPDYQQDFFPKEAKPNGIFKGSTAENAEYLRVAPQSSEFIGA
# test: Cellular proliferation (Alamar Blue) assay, EGFR D770_N771insSVD Ba/F3
# Format: cell-based
# conditions used: EGFR D770_N771insSVD Ba/F3, 72 hr, read-out: D770 IC50
Listed here: items and their measured log10 GI50.
measured property: log10 GI50 (log10 of the value in nM)

INSERT INTO assay_data (compound, val) VALUES
  ('C[C@H](c1ccccc1)N1Cc2cnc(Nc3cnn(C)c3)nc2N(c2cccc(NC(=O)/C=C/CN(C)C)c2)C1=O (single isomer, unassigned)', 3.43),
  ('CN(C)C/C=C/C(=O)Nc1cccc(N2C(=O)N(Cc3ccccc3)Cc3cnc(Nc4cnc(N5CCOCC5)nc4)nc32)c1', 3.59),
  ('Cn1cc(Nc2ncc3c(n2)N(c2cccc(NC(=O)/C=C/CN4CCOCC4)c2)C(=O)N(c2ccccc2)C3)c(Cl)n1', 2.45),
  ('C=CC(=O)Nc1cccc(N2C(=O)N(Cc3ccc(F)cc3)Cc3cnc(Nc4cnn(C)c4)nc32)c1', 2.12),
  ('CN(C)C/C=C/C(=O)Nc1cccc(N2C(=O)N(c3ccccc3)Cc3cnc(Nc4cccnc4F)nc32)c1', 3.04),
  ('COC/C=C/C(=O)Nc1cccc(N2C(=O)N(c3ccccc3)Cc3cnc(Nc4cn(C)nc4Cl)nc32)c1', 2.15),
  ('Cn1cc(Nc2ncc3c(n2)N(c2cccc(NC(=O)/C=C/Cl)c2)C(=O)N(Cc2ccccc2)C3)cn1', 3.94),
  ('C=CC(=O)Nc1cccc(N2C(=O)N(c3ccccc3)Cc3cnc(Nc4cn(C5CCN(C)CC5)nc4Cl)nc32)c1', 1.15),
  ('CN(C)C/C=C/C(=O)Nc1cccc(N2C(=O)N(Cc3ccccc3)Cc3cnc(Nc4ccc5cnn(C)c5c4)nc32)c1', 2.54),
  ('COC/C=C/C(=O)Nc1cccc(N2C(=O)N(Cc3ccccc3)Cc3cnc(Nc4cn(C)nc4F)nc32)c1', 3.00),
  ('C=CC(=O)NC1CCCC(N2C(=O)N(Cc3ccccc3)Cc3cnc(Nc4ncc(C)s4)nc32)C1 (centres unmarked)', 3.41),
  ('CN(C)C/C=C/C(=O)NC1CCCC(N2C(=O)N(Cc3ccccc3)Cc3cnc(Nc4cnn(C)c4)nc32)C1 (centres unmarked)', 3.54),
  ('O=C(/C=C/CF)Nc1cccc(N2C(=O)N(c3ccccc3)Cc3cnc(Nc4cccnc4F)nc32)c1', 2.08);
